biological target: H1047R PIK3CA enzyme (Homo sapiens, UniProt P42336, H1047R); experiment: ADP-Glo Biochemical PIK3CA Kinase Assay
Sequence (P42336 whole entry H1047R): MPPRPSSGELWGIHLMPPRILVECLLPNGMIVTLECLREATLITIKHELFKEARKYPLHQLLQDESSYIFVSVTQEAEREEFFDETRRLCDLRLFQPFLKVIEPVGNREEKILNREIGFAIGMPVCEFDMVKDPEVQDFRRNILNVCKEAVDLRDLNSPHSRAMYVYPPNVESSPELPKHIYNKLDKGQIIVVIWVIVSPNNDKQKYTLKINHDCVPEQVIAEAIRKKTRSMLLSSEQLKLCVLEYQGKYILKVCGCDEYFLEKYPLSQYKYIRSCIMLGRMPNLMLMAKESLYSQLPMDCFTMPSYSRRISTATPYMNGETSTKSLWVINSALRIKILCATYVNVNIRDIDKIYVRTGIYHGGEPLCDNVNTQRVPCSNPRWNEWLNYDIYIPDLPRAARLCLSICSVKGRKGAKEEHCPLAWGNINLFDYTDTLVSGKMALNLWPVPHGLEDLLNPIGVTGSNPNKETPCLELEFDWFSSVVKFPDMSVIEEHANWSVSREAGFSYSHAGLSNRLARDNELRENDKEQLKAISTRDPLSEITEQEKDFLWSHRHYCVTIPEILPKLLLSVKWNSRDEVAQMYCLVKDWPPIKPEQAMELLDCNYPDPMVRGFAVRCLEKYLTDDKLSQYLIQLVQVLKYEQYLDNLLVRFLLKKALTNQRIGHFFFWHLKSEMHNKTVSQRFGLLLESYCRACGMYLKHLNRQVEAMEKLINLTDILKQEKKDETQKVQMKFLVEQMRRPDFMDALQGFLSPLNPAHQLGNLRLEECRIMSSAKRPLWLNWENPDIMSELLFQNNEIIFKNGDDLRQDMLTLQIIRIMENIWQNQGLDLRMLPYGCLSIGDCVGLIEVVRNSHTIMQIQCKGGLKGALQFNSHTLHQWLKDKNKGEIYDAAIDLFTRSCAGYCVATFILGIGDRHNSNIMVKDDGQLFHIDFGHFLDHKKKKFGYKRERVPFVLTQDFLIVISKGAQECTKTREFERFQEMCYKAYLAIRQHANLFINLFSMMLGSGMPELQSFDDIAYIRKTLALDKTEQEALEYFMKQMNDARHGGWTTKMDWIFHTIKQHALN
Sequence (P27986 whole entry partner): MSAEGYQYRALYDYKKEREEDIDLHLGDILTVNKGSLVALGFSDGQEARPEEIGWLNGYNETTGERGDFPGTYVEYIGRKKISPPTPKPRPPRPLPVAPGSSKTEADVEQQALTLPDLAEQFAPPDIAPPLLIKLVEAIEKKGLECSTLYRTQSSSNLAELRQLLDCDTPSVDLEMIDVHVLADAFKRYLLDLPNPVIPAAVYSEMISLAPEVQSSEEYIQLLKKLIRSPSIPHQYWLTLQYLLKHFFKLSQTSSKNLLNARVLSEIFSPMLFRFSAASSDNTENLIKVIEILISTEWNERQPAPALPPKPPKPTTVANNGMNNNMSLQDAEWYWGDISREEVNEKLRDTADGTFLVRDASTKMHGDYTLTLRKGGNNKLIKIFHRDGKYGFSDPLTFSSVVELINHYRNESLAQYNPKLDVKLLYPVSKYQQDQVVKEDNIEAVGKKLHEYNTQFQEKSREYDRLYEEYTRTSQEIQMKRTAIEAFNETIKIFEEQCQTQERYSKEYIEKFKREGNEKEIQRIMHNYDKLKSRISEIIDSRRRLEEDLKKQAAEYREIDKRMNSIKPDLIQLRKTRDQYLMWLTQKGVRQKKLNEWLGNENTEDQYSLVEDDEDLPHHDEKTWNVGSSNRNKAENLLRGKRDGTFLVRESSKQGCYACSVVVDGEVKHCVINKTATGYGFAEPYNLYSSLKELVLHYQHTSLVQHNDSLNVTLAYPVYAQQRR
Reported IC50 values for the following compounds.

Look over these answered cases.
- Compound: "CC(C)(O)C12CC(C(=O)Nc3cccc4c3C(c3cc(F)ccc3Cl)NC4=O)(C1)C2 (stereo not shown)"
  IC50: "10000 to 100000 nM"
- Compound: "O=C(Nc1ccnc2c1C(c1cc(F)ccc1Cl)NC2=O)c1cc(F)cc(C(F)(F)F)c1 (stereo not shown)"
  IC50: "100 to 500 nM"
- Compound: "CC(C)(O)c1cnc2ccc(-c3cc(NC(=O)c4cc(F)cc(C(F)(F)F)c4)c4c(c3)C(=O)NC4c3cc(F)ccc3Cl)cc2c1 (stereo not shown)"
  IC50: "≤ 100 nM"
- Compound: "CC1(C)CC(COc2cc(NC(=O)c3cc(F)cc(C(F)(F)F)c3)c3c(c2)C(=O)NC3c2cc(F)ccc2Cl)O1 (stereo not shown)"
  IC50: "100 to 500 nM"
- Compound: "O=C(Nc1cc(C2CN(c3ccncn3)C2)cc2c1C(c1cc(F)ccc1Cl)NC2=O)c1cc(F)cc(C(F)(F)F)c1 (stereo not shown)"
  IC50: "≤ 100 nM"

Ask: Suppose we examine the compound O=C(Nc1cc(CS(=O)(=O)N2CCOCC2)cc2c1C(c1cc(F)ccc1Cl)NC2=O)c1cc(F)cc(C(F)(F)F)c1 (stereo not shown) ; what IC50 value has been reported?
Result: ≤ 100 nM

Ask: Suppose we examine the compound O=C(Nc1cc(NCC2(O)CC2)cc2c1C(c1cc(F)ccc1Cl)NC2=O)c1cc(F)cc(C(F)(F)F)c1 (stereo not shown) ; what IC50 value has been reported?
Result: ≤ 100 nM
